Substrate: CC(=O)Oc1ccc([N+](=O)[O-])cc1
Experiment: purified protein
Assay type: biochemical, Dorea formicigenerans
Conditions: 10 mM Tris-HCl pH 8.4, 2.5% Triton X-100, 40 °C
Measure Name: Km (µM)
Use µM as the unit, but write only the number.

Q) State the recorded Km for this entry: DfFAE (Dorea formicigenerans; P149A) (protein, E. coli T7; trimeric by SEC (117 kDa)) MNQKKECMDVHVNGLKFHVQTFGSGVPIIMIMGLGAPGDKWKHNYELLSKWFWCIVPDNRGAGLSDKPEAESYTTEQMADDIIGIMDALDIKKAHVMGVSMGGAIAQQVALKVPDRVLSLILTSTFASVSPAFKKALNLICELKEDTDAAVLKQLNLWMTYGQYTQIHHPEKIEKSIEEDAAYPYPMPVYAYKAQCGACLSHNTAGRLHELKMPVLIAAGAKDLFMNIEKTMELVHGIPQAEFYLAPEGGHVHQWEYPEPYDSVVVGFLMKHTN
A) 803.7
